Target: human GPR120 (Homo sapiens, UniProt Q5NUL3)
Sequence (Q5NUL3 1-361): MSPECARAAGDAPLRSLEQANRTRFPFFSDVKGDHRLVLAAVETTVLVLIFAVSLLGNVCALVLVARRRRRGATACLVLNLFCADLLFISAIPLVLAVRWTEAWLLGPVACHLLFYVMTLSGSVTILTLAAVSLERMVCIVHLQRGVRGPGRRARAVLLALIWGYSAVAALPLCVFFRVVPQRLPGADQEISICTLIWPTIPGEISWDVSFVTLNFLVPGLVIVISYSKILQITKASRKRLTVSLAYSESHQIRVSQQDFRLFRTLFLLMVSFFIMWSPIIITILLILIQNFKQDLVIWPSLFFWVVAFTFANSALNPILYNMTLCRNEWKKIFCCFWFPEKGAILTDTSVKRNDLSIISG
Assay: Measurement of intracellular calcium concentration (FLIPR), GPR120 agonist action
Conditions: human GPR120 expression CHO cells, Fluo-4 AM
Listed here: items and their measured EC50.
API: value field is a number in nM; no unit string.

O=S1(=O)c2ccccc2CN1c1cc(F)cc(Oc2cccnc2)c1 [Example 2] :: 180

Consider the additional compound presented here.
Q. # value lookup — system human GPR120 (Homo sapiens, UniProt Q5NUL3), readout EC50, item O=C1c2ccccc2CN1c1cc(F)cc(Oc2cccnc2)c1 [Example 1]
A. 850
